# Measurement Description: viability gain of MRP-1-high H69AR cells under doxorubicin, pilot screen, MRP-1 activator project, CellTiter-Glo, duplicate (AID 807);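 also: compound pretreatment 18-22 h then 72 h combined with doxorubicin; 0% = doxorubicin alone and 100% = vehicle without doxorubicin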
# Test Parameters: H69AR viability with doxorubicin, CellTiter-Glo luminescence; at 10 µM; hits give high values
Measured Parameter: viability increase (%)
Only the number, expressed in %, is required.

Solved cases below.
Measured viability increase, `O=C(C1CCN(S(=O)(=O)c2ccc(F)cc2)CC1)N1CC=C(c2ccccc2)CC1` : -2.73

Measured viability increase, `COc1ccc(CCN=C2SCC(=O)N2C)cc1OC` : -0.79

Measured viability increase, `COc1cc(OC)cc(C(=O)NCCn2ccc3ccccc32)c1` : -3.92

Measured viability increase, COc1ccc(NC2c3ccccc3C(=O)N2Cc2ccco2)cc1OC (stereo unspecified) : -3.63

Measured viability increase, `O=C(CN1C2=NCCCN2c2ccccc21)c1cccs1` : -3.27

Others:
Measured viability increase, COCCCN1CC23C=CC(O2)C(C(=O)O)C3C1=O (stereo unspecified) : -1.24

Measured viability increase, `Clc1ccc(CSc2nnc(-c3ccccn3)n2Cc2ccco2)c(Cl)c1` : -3.47

Measured viability increase, `c1ccc2c(c1)[nH]c1nc3nncn3nc12` : -1.07

Measured viability increase, `Cc1cc(C(=O)N2CCN(S(C)(=O)=O)CC2)cs1` : -1.25

Measured viability increase, COc1ccc(C2CC(c3ccc(Cl)c(Cl)c3)Nc3nc(N)nn32)cc1 (stereo unspecified) : -2.3

Measured viability increase, COc1ccc(N2CSC3=C(C#N)C(c4cc(OC)ccc4OC)CC(=O)N3C2)c(OC)c1 (stereo unspecified) : -6.09

---

# Measurement Description: growth suppression of beta-catenin knockout HCT116, pilot screen, human colon tumor cells (AID 823);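 also: 0% = wells killed by 20 µM Hyamine and 100% = untreated DMSO cell wells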
# Test Parameters: CellTiter-Glo, 60 h, at 10 µM, hits give low values
Inconclusive results are not listed. Active and inactive are the calls of the source.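 How the source made its calls: active means cell viability at or below a set limit in both duplicate runs, the limit being the all-compound median minus 4 SD (cut at about 23% in these data, passing the limit was not always enough); inconclusive means no clear call, values can overlap the other calls; inactive means the rest.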
Measured Parameter: viability

Measured viability, `COc1ccc(S(=O)(=O)N2CCN(CCO)CC2)cc1-c1nnc2c3ccccc3c(C)nn12` : 101% (inactive)

Measured viability, `CCOc1ccc(NC(=O)c2ccc(S(=O)(=O)N(C)C)cc2)cc1` : 102% (inactive)

Measured viability, `Cc1cc2cc(CCNC(=O)CC(C)(C)C)c(=O)[nH]c2cc1C` : 101% (inactive)

Measured viability, `COCCn1c(=O)[nH]c2cc(C(=O)NC3CCCCCC3)ccc2c1=O` : 93.7% (inactive)

Measured viability, `CCOc1ccc(N(CC(=O)NCC(C)C)S(C)(=O)=O)cc1` : 98% (inactive)

Measured viability, Cc1cc(N2CCN(C(c3ccccc3)c3ccc(Cl)cc3)CC2)n2ncnc2n1 (stereo not drawn) : 66.1% (inactive)

Measured viability, `NC(=O)c1ccsc1NC(=O)C1CCCCC1` : 102% (inactive)

Measured viability, `Cc1n[nH]c(=O)nc1NCc1ccccc1` : 95% (inactive)

Others:
Measured viability, `O=c1[nH]c2ccccc2n1Cc1ccc(F)cc1` : 96.6% (inactive)

Measured viability, `Cc1cc(NC(=O)c2ccccc2)sc1C` : 70.7% (inactive)

Measured viability, `O=C(CCCc1c[nH]c2ccccc12)N1CCN(c2ccc(N3CCOCC3)nn2)CC1` : 102% (inactive)

Measured viability, COC(=O)C(C)Sc1nnc(Cc2cc(=O)[nH]c(=O)[nH]2)n1-c1cccc(OC)c1 (stereo not drawn) : 104% (inactive)

Measured viability, CC(c1ccccc1)N1CNc2c(c(=O)n(C)c(=O)n2C)C1 (stereo not drawn) : 94.3% (inactive)

Measured viability, `Oc1c(/C=N/c2ncn[nH]2)ccc2ccccc12` : 98.3% (inactive)

Measured viability, C=CCn1c(NC(C)c2cc(Cl)ccc2O)nc2ccccc21 (stereo not drawn) : 68.6% (inactive)

Measured viability, `CCOC(=O)N1CCN(C(=O)c2cn(-c3ccc(C)c(C)c3)c(=O)c3ccccc23)CC1` : 85.6% (inactive)

Measured viability, `CCc1nccn1S(=O)(=O)c1ccc2ccccc2c1` : 102% (inactive)

Measured viability, `Cc1cc(C(=O)OCc2nnc(-c3ccccc3)o2)c(C)n1-c1ccccc1` : 84.4% (inactive)

Measured viability, `CCOc1ccc(N(CC(=O)NCc2ccccc2)S(=O)(=O)c2c(C)noc2C)cc1` : 101% (inactive)

Measured viability, `CCOC(=O)CSc1n[nH]c(-c2ccco2)n1` : 93.8% (inactive)

Measured viability, `CC1(C)CC(=O)C=C(NCCN2CCN(C(=O)Nc3ccc(Cl)c(Cl)c3)CC2)C1` : 94.8% (inactive)

Measured viability, `C=CCn1c(SCC(=O)Nc2cc(C)nn2-c2ccccc2)nnc1C1CCCCC1` : 90.8% (inactive)

Measured viability, `COc1cc(NS(=O)(=O)c2ccc3c(c2)oc(=O)n3C)cc(OC)c1OC` : 41.9% (inactive)

---

# Measurement Description: viability gain of MRP-1-high H69AR cells under doxorubicin, pilot screen, MRP-1 activator project, CellTiter-Glo, duplicate (AID 807);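 also: compound pretreatment 18-22 h then 72 h combined with doxorubicin; 0% = doxorubicin alone and 100% = vehicle without doxorubicin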
# Test Parameters: H69AR viability with doxorubicin, CellTiter-Glo luminescence; at 10 µM; hits give high values
Item-by-item account of viability increase
Only the number, expressed in %, is required.

Solved cases below.
Measured viability increase, CC1(C)CC(=O)C2=C(C1)Nc1ccccc1NC2c1nc2ccccc2[nH]1 (stereo unspecified) : -3.97

Measured viability increase, `CC(=O)Nc1c(-c2ccccc2)nc2ncccn12` : -0.33

Measured viability increase, `CCN(c1ccccc1)c1cc(C)nc2ncnn12` : -3.24

Measured viability increase, `N#CCCN1CCN(S(=O)(=O)c2ccc(S(=O)(=O)N3CCCC3)cc2)CC1` : 1.73

Measured viability increase, `O=C(c1ccc2nc(N3CCOCC3)sc2c1)N1CCN(C(=O)c2ccco2)CC1` : -1.45

Others:
Measured viability increase, `COc1ccccc1NC(=O)Cc1noc(CSc2nnc(C)s2)n1` : -2.11

Measured viability increase, COC(=O)C1C2C=CC3(CN(c4ccc(Cl)c(F)c4)C(=O)C13)O2 (stereo unspecified) : -1.28

Measured viability increase, `O=C(OCC(F)(F)C(F)F)c1ccccc1C(=O)Oc1ccc(F)cc1F` : -3.1

Measured viability increase, CCC(C)NC(=O)CS(=O)Cc1nc(-c2cccc(OC)c2)oc1C (stereo unspecified) : -1.45

Measured viability increase, `Cc1cc2oc(C(=O)NCc3ccncc3)c(C)c2cc1C` : 0.54

Measured viability increase, `c1ccc(CNn2c(N3CCOCC3)nc3ccccc32)cc1` : -3.02

---

# Measurement Description: viability gain of MRP-1-high H69AR cells under doxorubicin, pilot screen, MRP-1 activator project, CellTiter-Glo, duplicate (AID 807);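 also: compound pretreatment 18-22 h then 72 h combined with doxorubicin; 0% = doxorubicin alone and 100% = vehicle without doxorubicin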
# Test Parameters: H69AR viability with doxorubicin, CellTiter-Glo luminescence; at 10 µM; hits give high values
Item-by-item account of viability increase
Only the number, expressed in %, is required.

Measured viability increase, `Cn1c(=O)c2c(SCC(=O)c3ccccc3)nc(C3CC3)nc2n(C)c1=O` : -2.05

Measured viability increase, `COc1ccc(C(=O)Nc2cc(-c3nn4c(C)nnc4s3)ccc2C)cc1` : -5.02

Measured viability increase, `O=C(c1ccc(CS(=O)(=O)c2ccccc2)o1)N1CCN(c2ncccn2)CC1` : -4.07

Measured viability increase, `CCCCN(C)C(=O)c1ccc2c(c1)N(CC)C(=O)c1ccccc1S2(=O)=O` : -1.45

We next turn to a different compound, shown below.
Measured viability increase, CCC/C(=C1/C(=O)CC(C)(C)C(C(=O)OC)C1=O)N1CCCC1 (stereo not given) : -1.41

---

# Measurement Description: Restrictive medium S. cerevisiae growth inhibition, OD615, pilot screen of yeast lifespan reduction project, restrictive growth control (AID 706);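 also: modified DeaD lifespan yeast strain shifted to restrictive glucose medium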
# Test Parameters: OD615, 48 h, at 10 µM, hits give high values
Measured Parameter: growth inhibition (%)
Only the number, expressed in %, is required.

Solved cases below.
Measured growth inhibition, `CCc1ccccc1NC(=O)c1cc2sccc2n1C` : 0.86

Measured growth inhibition, `Cc1ccc(N(CC(=O)NCc2cccnc2)S(C)(=O)=O)cc1C` : -10.2

Measured growth inhibition, COC(=O)c1ccc(C2C(C(C)=O)=C(C)Nc3ncnn32)cc1 (stereo unspecified) : 9.82

Others:
Measured growth inhibition, `CCNc1nc(C)c2cc(Br)c(=O)n(CC)c2n1` : -8.07

Measured growth inhibition, `CCOC(=O)c1c(C)[nH]c(C(=O)OC)c1CCC(=O)OC` : -23.6

Measured growth inhibition, `O=C(NCc1cn2ccccc2n1)c1ccc(Br)o1` : -0.96

Measured growth inhibition, `CCCCCn1c(SCc2cccc(C)c2)nc2c1c(=O)[nH]c(=O)n2C` : -18.8

Measured growth inhibition, `CCOC(=O)CSc1nnc(Cn2c(=O)sc3ccccc32)n1-c1ccccc1C` : -6.71

Measured growth inhibition, O=C(CC1Oc2ccccc2NC1=O)NCCCN1CCN(Cc2ccccc2)CC1 (stereo unspecified) : -3.21

Measured growth inhibition, `CCOC(=O)N1CCN(C(=O)c2ccccc2NC(=O)COc2ccccc2C)CC1` : 3.48

Measured growth inhibition, `Cc1ccc(C)c(N2CCN(C(=O)CCS(=O)(=O)c3cccc4nonc34)CC2)c1` : -12.5
